Data origin, for the record: patent US20190233540A1

Can you tell me IC50, LDL uptake of HepG2 cells for the items I'm about to list?
- Study Target: human PCSK9 D347Y recombinant protein (human, UniProt Q8NBP7 31-692, biotin label (sites not given) in Examples 3 and 9)
- Sequence (Q8NBP7 31-692 D374Y): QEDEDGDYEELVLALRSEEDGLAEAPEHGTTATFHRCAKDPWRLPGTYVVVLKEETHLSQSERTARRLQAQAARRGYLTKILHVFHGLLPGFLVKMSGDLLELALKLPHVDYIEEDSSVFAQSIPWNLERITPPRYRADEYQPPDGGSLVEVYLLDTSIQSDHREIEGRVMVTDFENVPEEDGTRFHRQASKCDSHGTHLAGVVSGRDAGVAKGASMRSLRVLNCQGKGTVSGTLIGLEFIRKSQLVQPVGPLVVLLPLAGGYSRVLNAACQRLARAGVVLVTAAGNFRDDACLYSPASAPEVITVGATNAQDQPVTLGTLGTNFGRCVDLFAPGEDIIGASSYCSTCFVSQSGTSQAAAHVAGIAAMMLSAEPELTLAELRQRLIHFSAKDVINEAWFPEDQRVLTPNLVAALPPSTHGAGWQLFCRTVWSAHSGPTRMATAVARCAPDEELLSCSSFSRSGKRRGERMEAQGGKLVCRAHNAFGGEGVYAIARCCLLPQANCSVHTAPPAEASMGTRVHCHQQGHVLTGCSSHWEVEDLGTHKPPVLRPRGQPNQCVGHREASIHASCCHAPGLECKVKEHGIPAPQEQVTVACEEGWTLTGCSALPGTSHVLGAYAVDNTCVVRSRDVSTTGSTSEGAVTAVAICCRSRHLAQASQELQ
- Protocol: cell-based or functional assay

(Q) For the binder shown here, 1B11 murine-derived anti-PCSK9 monoclonal antibody (antibody, V domains shown, Mouse hybridoma antibody) VH: QVQLQQSGAVLVRPGTSIKVSCKASGYAFTNYLIEWIKKRPGQGLEWIGMINPGSGDTNFNEKFKAKATLTADKSSTTAYMQLNSLTFDDSAVYFCARSSQLGLPYWGQGTLVTVSA VL: DIQMTQSPASLSASVGETVTITCRASENIYSYLAWYQQKQENSPQLLVYNAYTLADGVPSRFSGSGSGTQFSLKIISLQPEDFGNYYCQHHYRTPPTFGGGTKLEIK , give the reported IC50, LDL uptake of HepG2 cells.
(A) ~1 µg/mL

(Q) Now the same for 3G12 murine-derived anti-PCSK9 monoclonal antibody (antibody, V domains shown, Mouse hybridoma antibody) VH: QVQLKQSGPSLLQPSQSLSITCTVSGFSLTSYGIHWVRQSPGKGLEWLGVIWRGGITDYNAPFMSRLNITKDNSKNQVFFKMNSLQVDDTAIYYCANHRDWGQGTLVTVSA VL: DIQMTQSPSSLSASLGGKVTITCKASQDINKYIDWYQHKPGKSPRLLIHYASTLQPGIPSRFSGSGSGRDYSFSISNLEPEDIATYYCLQYDDLWTFGGGTKLEIK
(A) ~1 µg/mL

(Q) Now the same for 1A5 murine-derived anti-PCSK9 monoclonal antibody (antibody, V domains shown, Mouse hybridoma antibody) VH: QVQLKQSGPSLVQPSQSLSITCTVSGFSLTSYGVHWVRQSPGKGLEWLGVIWRGGSTDYNAAFMSRLSITKDNSKSQVFFKMNSLQADDTAIYYCANHRDWGQGTLVTVSA VL: DIQMTQSPSSLSASLGDKVTITCKASQDINKYIDWYQHKPGKGPRLLIHYTSTLQPGIPSRFSGSGSGRDYSFSISNLEPEDIATYYCVQYDDLWTFGGGTKLEIK
(A) ~1 µg/mL
